system: HuR W261E (human, UniProt Q15717 1-326, W261E)
Sequence (Q15717 whole entry W261E): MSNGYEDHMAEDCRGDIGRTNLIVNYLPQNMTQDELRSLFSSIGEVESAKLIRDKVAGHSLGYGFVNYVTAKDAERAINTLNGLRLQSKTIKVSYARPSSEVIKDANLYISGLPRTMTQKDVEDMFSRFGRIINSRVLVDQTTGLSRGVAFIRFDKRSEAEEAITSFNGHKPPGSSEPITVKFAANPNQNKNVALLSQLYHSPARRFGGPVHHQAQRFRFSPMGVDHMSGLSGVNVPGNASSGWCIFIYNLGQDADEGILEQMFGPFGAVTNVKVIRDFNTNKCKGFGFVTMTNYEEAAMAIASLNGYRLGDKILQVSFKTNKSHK
protocol summary: ITC; n=0.9; ITC: 50 mM sodium phosphate pH 7.0, 200 mM NaCl, 2 mM beta-mercaptoethanol, 298 K; NMR: 20 mM sodium phosphate pH 7.0, 200 mM NaCl, 5 mM DTT, 1 mM EDTA, 298 K
reported conditions: protein: recombinant; tags: untagged (tag cleaved)
parameter: Kd (nM)
Numbers only, in nM.

// query Kd value for entry AUUUUUAUUUUAUUUUU (ssRNA) [AU17]
41

Data provenance: paper PMC6344896
